- experimentSummary: collision cross section (TIMS, N2 drift gas) of the primary ion; higher = larger gas-phase ion size
- testContext: ionization mode: ESI+; ion species: [M+H]+
Listed next: entries and their corresponding collision cross section.
I'd appreciate it if you wrote the number followed by its unit.

Check out these entries, answers already filled in.
molecule	reportedResult
CC(=NC#N)N(C)Cc1ccc(Cl)nc1	153.22 Å²
CO/N=C(/C1=NOCCO1)c1ccccc1Oc1ncnc(Oc2ccccc2Cl)c1F	205.37 Å²
CC(C1CC1)C(O)(Cn1cncn1)c1ccc(Cl)cc1 (stereo not drawn) [Cyproconazole_2]	170.04 Å²

For the molecule shown here, C=C(C)C(=O)NCCCN(C)C [N-(3-Dimethylamino)propyl)methacrylamide] , give the reported collision cross section.
136.2 Å²

For the molecule shown here, CC(NC(C)(C)C)C(=O)c1cccc(Cl)c1 (stereo not drawn) , give the reported collision cross section.
158.6 Å²

For the molecule shown here, C#CCN1C(=O)COc2cc(F)c(N3C(=O)C4=C(CCCC4)C3=O)cc21 , give the reported collision cross section.
188.98 Å²

For the molecule shown here, Nc1ccc(Oc2ccc(N)cc2)cc1 , give the reported collision cross section.
159.82 Å²

For the molecule shown here, CC1(C)O[C@@H]2C[C@H]3[C@@H]4CCC5=CC(=O)C=C[C@]5(C)[C@H]4[C@@H](O)C[C@]3(C)[C@]2(C(=O)CO)O1 [Desonide] , give the reported collision cross section.
200.7 Å²

For the molecule shown here, CCCCC(CC)COC(=O)c1ccccc1C(=O)OCC(CC)CCCC (stereo not drawn) [Bis(2-ethylhexyl)phthalate] , give the reported collision cross section.
212.9 Å²

For the molecule shown here, Nc1nnc(-c2cccc(Cl)c2Cl)c(N)n1 , give the reported collision cross section.
153.91 Å²

For the molecule shown here, CC(C)NCC(O)COc1cccc2ccccc12 (stereo not drawn) , give the reported collision cross section.
162.88 Å²

For the molecule shown here, CN(C)CCOC(c1ccccc1)c1ccccc1 [Diphenhydramine] , give the reported collision cross section.
162.95 Å²

For the molecule shown here, CC/C(=C(\c1ccccc1)c1ccc(OCCN(C)C)cc1)c1ccccc1 , give the reported collision cross section.
198.29 Å²
